pIC50: −log10 of the molar value.
Here's what we have: pIC50 numbers for Plasminogen (Homo sapiens).
OUTCOME MEASURE: pIC50

> print(dat)
                                item.smiles  measured.result
1  N#C[C@H](CCCCN)NC(=O)c1ccc(OCc2ccncc2)c(NC(=O)Cc2cccc3ccccc23)c1             3.24
2  CC(C)(C)OC(=O)n1cc(CCC(=O)Nc2cc(C(=O)N[C@H](C#N)CCCCN)ccc2OCc2ccncc2)c2ccccc21             3.66
3  N#C[C@H](CCCCN)NC(=O)c1ccc(OCc2ccncc2)c(NC(=O)Cc2ccc(F)cc2)c1             3.23

I: N#C[C@H](CCCCN)NC(=O)c1ccc(OCc2ccncc2)cc1
II: CC[C@@H](C)[C@@H](N)C(=O)N[C@@H](Cc1ccccc1)C(=O)N[C@H](C#N)CCCCN
Query: Could you check which of I and II has a smaller value for pIC50? Pick one and reply with its label.
Response: I

// data source = ChEMBL document CHEMBL1909593
